# measured on: Voltage-dependent L-type calcium channel subunit alpha-1C (Rattus norvegicus)
# Sequence (P22002 whole entry): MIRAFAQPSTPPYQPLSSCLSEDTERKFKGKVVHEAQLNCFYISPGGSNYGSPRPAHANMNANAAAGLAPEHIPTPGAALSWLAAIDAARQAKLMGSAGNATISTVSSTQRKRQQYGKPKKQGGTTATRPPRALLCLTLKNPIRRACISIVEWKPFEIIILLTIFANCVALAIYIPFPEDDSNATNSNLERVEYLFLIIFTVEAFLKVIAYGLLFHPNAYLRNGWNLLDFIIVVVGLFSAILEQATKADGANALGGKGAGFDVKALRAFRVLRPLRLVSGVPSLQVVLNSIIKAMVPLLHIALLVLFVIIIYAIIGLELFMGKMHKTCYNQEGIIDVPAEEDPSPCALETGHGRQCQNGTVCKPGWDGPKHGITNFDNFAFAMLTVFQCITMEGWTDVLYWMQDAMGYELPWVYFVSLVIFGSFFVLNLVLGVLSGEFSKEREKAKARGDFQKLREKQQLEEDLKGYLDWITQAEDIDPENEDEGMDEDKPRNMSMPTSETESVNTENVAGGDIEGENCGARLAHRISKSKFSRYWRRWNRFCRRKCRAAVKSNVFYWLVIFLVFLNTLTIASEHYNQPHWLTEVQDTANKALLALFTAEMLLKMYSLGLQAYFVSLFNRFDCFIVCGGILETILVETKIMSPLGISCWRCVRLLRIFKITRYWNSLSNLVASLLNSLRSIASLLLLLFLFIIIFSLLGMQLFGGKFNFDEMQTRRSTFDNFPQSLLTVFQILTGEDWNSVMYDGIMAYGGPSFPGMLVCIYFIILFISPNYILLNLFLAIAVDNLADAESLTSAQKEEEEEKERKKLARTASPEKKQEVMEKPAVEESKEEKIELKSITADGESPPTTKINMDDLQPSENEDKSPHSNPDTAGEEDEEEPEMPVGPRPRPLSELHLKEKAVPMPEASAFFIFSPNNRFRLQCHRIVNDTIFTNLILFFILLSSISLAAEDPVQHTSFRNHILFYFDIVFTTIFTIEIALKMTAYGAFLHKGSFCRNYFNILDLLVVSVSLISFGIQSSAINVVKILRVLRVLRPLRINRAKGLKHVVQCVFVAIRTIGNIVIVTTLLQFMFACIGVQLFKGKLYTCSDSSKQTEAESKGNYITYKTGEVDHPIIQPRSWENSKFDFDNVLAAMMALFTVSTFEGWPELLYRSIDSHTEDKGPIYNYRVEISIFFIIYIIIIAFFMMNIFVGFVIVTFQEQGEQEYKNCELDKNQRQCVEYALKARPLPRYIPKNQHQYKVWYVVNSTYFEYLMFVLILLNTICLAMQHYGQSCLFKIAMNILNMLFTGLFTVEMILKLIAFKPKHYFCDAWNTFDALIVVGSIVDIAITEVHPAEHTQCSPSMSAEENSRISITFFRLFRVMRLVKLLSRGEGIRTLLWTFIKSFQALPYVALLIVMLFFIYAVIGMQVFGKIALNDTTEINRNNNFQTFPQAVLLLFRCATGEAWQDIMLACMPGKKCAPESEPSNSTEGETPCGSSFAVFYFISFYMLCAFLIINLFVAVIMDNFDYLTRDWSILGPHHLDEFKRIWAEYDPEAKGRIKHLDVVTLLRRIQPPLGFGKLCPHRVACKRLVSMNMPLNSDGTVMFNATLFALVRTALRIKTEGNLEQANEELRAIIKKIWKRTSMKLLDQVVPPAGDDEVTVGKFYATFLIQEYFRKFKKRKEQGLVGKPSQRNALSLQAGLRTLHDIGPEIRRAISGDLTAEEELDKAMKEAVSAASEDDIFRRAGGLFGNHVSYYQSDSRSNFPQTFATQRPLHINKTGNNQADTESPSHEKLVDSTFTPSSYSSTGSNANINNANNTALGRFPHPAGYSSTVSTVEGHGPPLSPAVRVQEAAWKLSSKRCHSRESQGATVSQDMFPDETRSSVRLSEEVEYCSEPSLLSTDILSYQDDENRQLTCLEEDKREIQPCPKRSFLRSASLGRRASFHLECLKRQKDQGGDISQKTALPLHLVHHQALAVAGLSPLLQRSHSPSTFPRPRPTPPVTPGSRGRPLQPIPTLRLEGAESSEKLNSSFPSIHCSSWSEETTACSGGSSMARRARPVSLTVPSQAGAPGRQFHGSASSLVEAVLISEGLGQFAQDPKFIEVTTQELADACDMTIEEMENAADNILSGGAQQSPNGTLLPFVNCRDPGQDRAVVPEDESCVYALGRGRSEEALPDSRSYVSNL
# Format: functional
assay readout: AC50

Completed entries (count: 4):
- COc1ccc2nc3cc(Cl)ccc3c(Nc3cc(CN4CCCC4)c(O)c(CN4CCCC4)c3)c2n1 [PYRONARIDINE]: > 30 µM
- CCC1(c2ccccc2)CCC(=O)NC1=O (stereo not drawn) [GLUTETHIMIDE]: > 10 µM
- CCOC(=O)c1cncn1[C@H](C)c1ccccc1 [ETOMIDATE]: > 10 µM
- CC(C)N(CCC(C(N)=O)(c1ccccc1)c1ccccn1)C(C)C (stereo not drawn) [DISOPYRAMIDE]: > 10 µM

Endpoint output: AC50 of N[C@@H](CC(=O)N1CCn2c(nnc2C(F)(F)F)C1)Cc1cc(F)c(F)cc1F [SITAGLIPTIN] . Value?
> 10 µM
